Assign IC50 to each entry below.
Target under test: recombinant DYRK1A kinase (Homo sapiens (Human), UniProt Q13627)
Run description: DYRK1A kinase assay (Ser/Thr 18 peptide Z-lyte FRET)
Conditions used: DYRK1A kinase activity, Z-lyte Ser/Thr 18 peptide, 15 μM ATP; method text calls the value IC50; read-out: EC50 (the source's name)
Your answer should be a plain number; it is taken to be in nM.

input: I would be grateful if you could share the reported IC50 for COc1nc(N[C@H]2C[C@@](C)(NC(C)=O)C2)nn2ccc(-c3ccc4nnn(C)c4c3)c12 .
output: 4.3

input: I would be grateful if you could share the reported IC50 for CC[C@]1(O)CC[C@@H](Nc2nc(OC)c3c(-c4ccc5nnn(CC(F)F)c5c4)ccn3n2)CC1 .
output: 1.8

input: I would be grateful if you could share the reported IC50 for COc1nc(NC2CCOCC2)nn2ccc(-c3ccc4nccnc4c3)c12 .
output: 2.5

input: I would be grateful if you could share the reported IC50 for COc1nc(N[C@H]2CCN(C3COC3)CC2(F)F)nn2ccc(-c3ccc4nc(C)n(CC(F)F)c4c3)c12 .
output: 10.8

input: I would be grateful if you could share the reported IC50 for COc1nc(N[C@H]2CC[C@](C)(O)CC2)nn2ccc(-c3ccc4nc(C)n(CC(F)F)c4c3)c12 .
output: 2.6

input: I would be grateful if you could share the reported IC50 for COc1nc(N[C@H]2CC[C@]3(CCO3)CC2)nn2ccc(-c3cnc4nccn4c3)c12 .
output: 1

input: I would be grateful if you could share the reported IC50 for COc1nc(N[C@@H]2CCN(C)CC2(F)F)nn2ccc(-c3ccc4ncnn4c3)c12 .
output: 7.3

input: I would be grateful if you could share the reported IC50 for CCO[C@H]1C[C@@H](Nc2nc(OC)c3c(-c4ccc5nnn(C)c5c4)ccn3n2)C1 .
output: 8.6

---

Target under test: recombinant DYRK1A kinase (Homo sapiens (Human), UniProt Q13627)
Run description: DYRK1A kinase assay (Ser/Thr 18 peptide Z-lyte FRET)
Conditions used: DYRK1A kinase activity, Z-lyte Ser/Thr 18 peptide, 15 μM ATP; method text calls the value IC50; read-out: EC50 (the source's name)
Readout label: IC50 (nM)
Your answer should be a plain number; it is taken to be in nM.

input: I would be grateful if you could share the reported IC50 for COc1nc(N[C@@H]2CCN(C3COC3)CC2(F)F)nn2ccc(-c3ccc4ncccc4c3)c12 [Compound 321] .
output: 2.1

input: I would be grateful if you could share the reported IC50 for COc1nc(N[C@H]2CCN(C)CC2(F)F)nn2ccc(-c3ccc4ncccc4c3)c12 [Compound 320] .
output: 8.2

input: I would be grateful if you could share the reported IC50 for COc1nc(NC2CCC3(CC2)COC3)nn2ccc(-c3ccc4ncccc4c3)c12 [Compound 326] .
output: 7.3

input: I would be grateful if you could share the reported IC50 for COc1nc(N[C@H]2CC[C@@H](OC)CC2)nn2ccc(-c3cnc4nccn4c3)c12 [Compound 243] .
output: 1.2

input: I would be grateful if you could share the reported IC50 for COc1nc(N[C@H]2CC[C@H](C(C)(C)O)CC2)nn2ccc(-c3ccc4nccnc4c3)c12 [Compound 342] .
output: 3.2

input: I would be grateful if you could share the reported IC50 for COc1nc(NC23CCC(O)(CC2)C3)nn2ccc(-c3ccc4nnn(CC(F)F)c4c3)c12 [Compound 798] .
output: 0.3

input: I would be grateful if you could share the reported IC50 for COc1nc(N[C@H]2C[C@@](C)(C(=O)NC3CC3)C2)nn2ccc(-c3ccc4nnn(C)c4c3)c12 [Compound 217] .
output: 9.3

input: I would be grateful if you could share the reported IC50 for COc1nc(NC2CCOCC2)nn2ccc(-c3cnc4nccn4c3)c12 [Compound 271] .
output: 3.8

input: I would be grateful if you could share the reported IC50 for COc1nc(N[C@H]2C[C@](C)(C(=O)NC3CC3)C2)nn2ccc(-c3ccc4ncccc4c3)c12 [Compound 1039] .
output: 1.7

input: I would be grateful if you could share the reported IC50 for COc1nc(N[C@@H]2CCN(C)CC2(F)F)nn2ccc(-c3ccc4nnn(C)c4c3)c12 [Compound 626] .
output: 2.7

input: I would be grateful if you could share the reported IC50 for COc1nc(N[C@H]2C[C@@](C)(O)C2)nn2ccc(-c3cc(F)c4nc(C)n(CC(F)F)c4c3)c12 [Compound 509] .
output: 1.4

input: I would be grateful if you could share the reported IC50 for COc1nc(NCC(C)(C)O)nn2ccc(-c3ccc4nnn(CC(F)F)c4c3)c12 [Compound 696] .
output: 1.3

input: I would be grateful if you could share the reported IC50 for COc1nc(N[C@H]2CC[C@](C)(O)CC2)nn2ccc(-c3cc(F)c4nccn4c3)c12 [Compound 431] .
output: 2.3

input: I would be grateful if you could share the reported IC50 for COc1nc(N[C@@H]2CN(C(C)=O)C[C@@H]2F)nn2ccc(-c3ccc4nnn(CC(F)(F)F)c4c3)c12 [Compound 912] .
output: 0.8

input: I would be grateful if you could share the reported IC50 for COc1nc(N[C@H]2C[C@@H](OCCO)C2)nn2ccc(-c3ccc4nnn(CC(F)F)c4c3)c12 [Compound 699] .
output: 1.4

input: I would be grateful if you could share the reported IC50 for CCN1CC[C@@H](Nc2nc(OC)c3c(-c4ccc5nnn(CC(F)F)c5c4)ccn3n2)C(F)(F)C1 [Compound 780] .
output: 1.9

---

Target under test: recombinant DYRK1A kinase (Homo sapiens (Human))
Run description: DYRK1A kinase assay (Ser/Thr 18 peptide Z-lyte FRET)
Assay type: biochemical
Conditions used: DYRK1A kinase activity, Z-lyte Ser/Thr 18 peptide, 15 μM ATP; method text calls the value IC50; read-out: EC50 (the source's name)
pIC50: −log10 of the molar value.
Decide using pIC50: a value greater than or equal to 9 is Condition met, a smaller one is Condition not met.

input: Determine whether this compound has pIC50 no lower than 9: COc1nc(N[C@@H]2CCNC[C@@H]2F)nn2ccc(-c3ccn4nccc4c3)c12
output: Condition not met

input: Determine whether this compound has pIC50 no lower than 9: COc1nc(N[C@@H]2CCN(C3COC3)CC2(F)F)nn2ccc(-c3ccc4nnn(CC(F)F)c4c3)c12
output: Condition met

input: Determine whether this compound has pIC50 no lower than 9: COc1nc(NC23CC(N)(C2)C3)nn2ccc(-c3ccc4nccnc4c3)c12
output: Condition not met

input: Determine whether this compound has pIC50 no lower than 9: COc1nc(N[C@H]2CC[C@@](C)(O)CC2)nn2ccc(-c3ccc4nnn(CC(F)(F)F)c4c3)c12
output: Condition not met

input: Determine whether this compound has pIC50 no lower than 9: COc1nc(N[C@H](C)C2CC2)nn2ccc(-c3cnc4nccn4c3)c12
output: Condition not met

---

Target under test: recombinant DYRK1A kinase (Homo sapiens (Human), UniProt Q13627)
Run description: DYRK1A kinase assay (Ser/Thr 18 peptide Z-lyte FRET)
Conditions used: DYRK1A kinase activity, Z-lyte Ser/Thr 18 peptide, 15 μM ATP; method text calls the value IC50; read-out: EC50 (the source's name)
Protocol: Representative compounds were screened using the assay procedure for DYRK1A kinase activity as described below. Each compound was dissolved in DMSO as a 10 mM stock and used to prepare compound source plates. […] The Emission ratio (Em) was calculated as a ratio of the coumarin (C) emission signal (at 445 nm)/Fluorescein (F) emission signal (at 520 nm). The percent phosphorylation was then calculated using the following formula: [1−((Em ratio X F100%)-C100%)/((C0%-C100%) +(Em ratio X (F100%−F0%)))]. […]
Assign pIC50 to each entry below.
pIC50 here: minus log base 10 of the concentration, concentration in moles per litre.

input: Recall the recorded pIC50 for COc1nc(N[C@H]2CCN(C(C)=O)C[C@H]2F)nn2ccc(-c3ccc4nnn(CC(F)(F)F)c4c3)c12 with recombinant DYRK1A kinase (Homo sapiens (Human), UniProt Q13627) and state it.
output: 8.85

input: Recall the recorded pIC50 for COc1nc(N[C@@H]2CCN(C(C)=O)CC2(F)F)nn2ccc(-c3ccc4ncccc4c3)c12 with recombinant DYRK1A kinase (Homo sapiens (Human), UniProt Q13627) and state it.
output: 8.89

input: Recall the recorded pIC50 for COc1nc(N[C@H]2CC[C@H](O)CC2)nn2ccc(-c3ccc4nnn(CC(F)F)c4c3)c12 with recombinant DYRK1A kinase (Homo sapiens (Human), UniProt Q13627) and state it.
output: 9.52

input: Recall the recorded pIC50 for COc1nc(N[C@H]2CC[C@](C)(O)CC2)nn2ccc(-c3ccc4ncn(CC(F)F)c4c3)c12 with recombinant DYRK1A kinase (Homo sapiens (Human), UniProt Q13627) and state it.
output: 9.30

input: Recall the recorded pIC50 for COc1nc(NC2CCC3(CC2)CN(C(C)=O)C3)nn2ccc(-c3ccc4nc(C)n(CCO)c4c3)c12 with recombinant DYRK1A kinase (Homo sapiens (Human), UniProt Q13627) and state it.
output: 8.77

input: Recall the recorded pIC50 for COc1nc(N[C@H]2C[C@](C)(C(=O)N3CCCC3)C2)nn2ccc(-c3ccc4nnn(C)c4c3)c12 with recombinant DYRK1A kinase (Homo sapiens (Human), UniProt Q13627) and state it.
output: 8.46

input: Recall the recorded pIC50 for CCOc1nc(NC2CC3(C2)CN(C(C)=O)C3)nn2ccc(-c3ccn4nccc4c3)c12 with recombinant DYRK1A kinase (Homo sapiens (Human), UniProt Q13627) and state it.
output: 8.35

input: Recall the recorded pIC50 for COc1nc(NC2CC3(C2)CN(C(C)=O)C3)nn2ccc(-c3ccn4nccc4c3)c12 with recombinant DYRK1A kinase (Homo sapiens (Human), UniProt Q13627) and state it.
output: 8.60

input: Recall the recorded pIC50 for COc1nc(N[C@@H]2CN(C(C)=O)C[C@@H]2F)nn2ccc(-c3cc(F)c4nnn(CC(F)F)c4c3)c12 with recombinant DYRK1A kinase (Homo sapiens (Human), UniProt Q13627) and state it.
output: 8.55

input: Recall the recorded pIC50 for COc1nc(N[C@@H]2CCN(C3COC3)C[C@@H]2F)nn2ccc(-c3ccc4nnn(CC(F)F)c4c3)c12 with recombinant DYRK1A kinase (Homo sapiens (Human), UniProt Q13627) and state it.
output: 8.77

input: Recall the recorded pIC50 for COc1nc(N[C@H]2C[C@@](C)(NC(C)=O)C2)nn2ccc(-c3ccc4ncccc4c3)c12 with recombinant DYRK1A kinase (Homo sapiens (Human), UniProt Q13627) and state it.
output: 8.59

input: Recall the recorded pIC50 for CCN1CC[C@@H](Nc2nc(OC)c3c(-c4ccc5nccnc5c4)ccn3n2)C(F)(F)C1 with recombinant DYRK1A kinase (Homo sapiens (Human), UniProt Q13627) and state it.
output: 8.40

input: Recall the recorded pIC50 for COc1nc(NC2CCC3(CC2)COC3)nn2ccc(-c3ccc4nc(C)n(CCO)c4c3)c12 with recombinant DYRK1A kinase (Homo sapiens (Human), UniProt Q13627) and state it.
output: 8.52

input: Recall the recorded pIC50 for COc1nc(N[C@@H]2CCN(C3COC3)CC2(F)F)nn2cc(F)c(-c3ccc4ncccc4c3)c12 with recombinant DYRK1A kinase (Homo sapiens (Human), UniProt Q13627) and state it.
output: 8.43

input: Recall the recorded pIC50 for COc1nc(NC2CCC(F)(F)CC2)nn2ccc(-c3ccc4ncnn4c3)c12 with recombinant DYRK1A kinase (Homo sapiens (Human), UniProt Q13627) and state it.
output: 7.70

input: Recall the recorded pIC50 for [2H]C([2H])([2H])Oc1nc(N[C@H]2CC[C@](C)(O)CC2)nn2ccc(-c3ccc4nccnc4c3)c12 with recombinant DYRK1A kinase (Homo sapiens (Human), UniProt Q13627) and state it.
output: 8.64

input: Recall the recorded pIC50 for COc1nc(N[C@H]2CC[C@@H](O)CC2)nn2ccc(-c3ccc4nnn(CC(F)F)c4c3)c12 with recombinant DYRK1A kinase (Homo sapiens (Human), UniProt Q13627) and state it.
output: 9.30

input: Recall the recorded pIC50 for COc1nc(N[C@H](C)c2ccccn2)nn2ccc(-c3ccn4nccc4c3)c12 with recombinant DYRK1A kinase (Homo sapiens (Human), UniProt Q13627) and state it.
output: 6.71

input: Recall the recorded pIC50 for COc1nc(N[C@H]2CC[C@](C)(O)CC2)nn2ccc(-c3ccc4nc(C)nn4c3)c12 with recombinant DYRK1A kinase (Homo sapiens (Human), UniProt Q13627) and state it.
output: 7.85

input: Recall the recorded pIC50 for CCO[C@H]1C[C@@H](Nc2nc(OC)c3c(-c4ccc5ncnn5c4)ccn3n2)C1 with recombinant DYRK1A kinase (Homo sapiens (Human), UniProt Q13627) and state it.
output: 8.30

input: Recall the recorded pIC50 for COc1nc(N[C@@H]2CCN(C3COC3)CC2(F)F)nn2ccc(-c3cnc4nccn4c3)c12 with recombinant DYRK1A kinase (Homo sapiens (Human), UniProt Q13627) and state it.
output: 8.55

input: Recall the recorded pIC50 for COc1nc(N[C@@H]2CCN(C3CCC3)CC2(F)F)nn2ccc(-c3ccc4nc(C)n(CC(F)F)c4c3)c12 with recombinant DYRK1A kinase (Homo sapiens (Human), UniProt Q13627) and state it.
output: 7.97

input: Recall the recorded pIC50 for COc1nc(N[C@@H]2CCN(C3COC3)CC2(F)F)nn2ccc(-c3ccc4nnn(CCF)c4c3)c12 with recombinant DYRK1A kinase (Homo sapiens (Human), UniProt Q13627) and state it.
output: 9.10

input: Recall the recorded pIC50 for COc1nc(N[C@H]2C[C@](C)(C(=O)NC3CC3)C2)nn2ccc(-c3ccc4nnn(C)c4c3)c12 with recombinant DYRK1A kinase (Homo sapiens (Human), UniProt Q13627) and state it.
output: 8.54

input: Recall the recorded pIC50 for COc1nc(N[C@H]2CC[C@](C)(O)CC2)nn2ccc(-c3ccc4nncn4c3)c12 with recombinant DYRK1A kinase (Homo sapiens (Human), UniProt Q13627) and state it.
output: 7.00

input: Recall the recorded pIC50 for COc1nc(NC2CCC3(CC2)CN(C(C)=O)C3)nn2ccc(-c3ccn4nccc4c3)c12 with recombinant DYRK1A kinase (Homo sapiens (Human), UniProt Q13627) and state it.
output: 8.80
